B1: SNX8 (parent)
chain: RMVPALPPKRMLGADREFIEARRR

# Variants of: B1
# assay.procedure: protein stability index of a GFP-peptide fusion (GPS, HEK-293T) (PSI 1-6); higher = more stable;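 note: lentivirally expressed fusions sorted by FACS into six bins by GFP to DsRed ratio, PSI derived from sequencing read proportions per bin multiplied by bin number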
# assay.conditions: c terminus: a fixed tail appended
readout.name: protein stability index

Would you please look over these solved cases?
Return value of protein stability index for input R24K , no commentary.
3.74

Return value of protein stability index for input L6T , no commentary.
3.63

Return value of protein stability index for input A14T , no commentary.
3.63

Return value of protein stability index for input R23Q , no commentary.
3.11

Return value of protein stability index for input M2E , no commentary.
4.52

Return value of protein stability index for input D15H , no commentary.
3.22

---
Return value of protein stability index for input E17I , no commentary.
2.64

Return value of protein stability index for input R23G , no commentary.
3.79

Return value of protein stability index for input F18P , no commentary.
4.64
